# Test system: Escherichia coli TOP10
# Protocol text: shrunken log2 fold change of peptide-encoding DNA abundance (4.5 h post-induction vs induction); higher = less antimicrobial activity (less host growth inhibition)
# Condition description: time post-induction: 4.5 h; library: site-saturation at positions 5, 18, 19, 20
Rule: true for shrunken log2 fold change not less than -0.09, false for anything less.

Check if shrunken log2 fold change >= -0.09 (inclusive). Item: "RRIRPRPPRLPRPRPRPHMVPRP"
true

----------
# System: Escherichia coli TOP10
# Protocol text: shrunken log2 fold change of peptide-encoding DNA abundance (4.5 h post-induction vs induction); higher = less antimicrobial activity (less host growth inhibition)
# Condition description: time post-induction: 4.5 h; library: site-saturation at positions 5, 18, 19, 20
For each entry below, report its shrunken log2 fold change value.
Give bare numbers.

Sample answers from the record:
RRIRIRPPRLPRPRPRPHCHPRP :: -0.394
RRIRQRPPRLPRPRPRPLATPRP :: 0.0953

Give the measured shrunken log2 fold change of "RRIRFRPPRLPRPRPRPLDQPRP" .
0.0734

----------
So I've got a bunch of sequences here, and I need their shrunken log2 fold change values.
# Test system: Escherichia coli TOP10
# Protocol text: shrunken log2 fold change of peptide-encoding DNA abundance (4.5 h post-induction vs induction); higher = less antimicrobial activity (less host growth inhibition)
# Condition description: time post-induction: 4.5 h; library: site-saturation at positions 5, 18, 19, 20
Answers are plain numbers.

Here's what some known entries look like.
RRIRYRPPRLPRPRPRPTSIPRP :: -0.656
RRIRDRPPRLPRPRPRPCGCPRP :: 0.317
RRIRPRPPRLPRPRPRPRMSPRP :: 0.232

What value of shrunken log2 fold change has been recorded for this entry: "RRIRLRPPRLPRPRPRPIYRPRP"
-0.0597

----------
Assignment: determine reported shrunken log2 fold change for the given sequences.
# System: Escherichia coli TOP10
# Protocol text: shrunken log2 fold change of peptide-encoding DNA abundance (4.5 h post-induction vs induction); higher = less antimicrobial activity (less host growth inhibition)
# Condition description: time post-induction: 4.5 h; library: site-saturation at positions 5, 18, 19, 20

Look over these answered cases.
RRIRLRPPRLPRPRPRPFDVPRP :: -0.0798
RRIRYRPPRLPRPRPRPSAQPRP :: -0.17
RRIRPRPPRLPRPRPRPMVQPRP :: 0.0526
RRIRKRPPRLPRPRPRPDSMPRP :: 0.0692
RRIRERPPRLPRPRPRPEVIPRP :: -0.00884
RRIRPRPPRLPRPRPRPVSDPRP :: -0.0922
RRIRLRPPRLPRPRPRPQYWPRP :: -0.275
RRIRHRPPRLPRPRPRPRMPPRP :: 0.133

For each of the sequences below, state shrunken log2 fold change.
1. RRIRVRPPRLPRPRPRPFVVPRP
2. RRIRIRPPRLPRPRPRPLTEPRP
3. RRIRFRPPRLPRPRPRPIPFPRP
4. RRIRKRPPRLPRPRPRPHECPRP
5. RRIRHRPPRLPRPRPRPQNYPRP
6. RRIRCRPPRLPRPRPRPLLSPRP
7. RRIRERPPRLPRPRPRPHTEPRP

1: -0.107; 2: -0.044; 3: 2.3; 4: 0.286; 5: -1.11; 6: -0.306; 7: -0.239

----------
Can you tell me shrunken log2 fold change for the items I'm about to list?
# Test system: Escherichia coli TOP10
# Protocol text: shrunken log2 fold change of peptide-encoding DNA abundance (4.5 h post-induction vs induction); higher = less antimicrobial activity (less host growth inhibition)
# Condition description: time post-induction: 4.5 h; library: site-saturation at positions 5, 18, 19, 20
One number for each entry.

RRIRARPPRLPRPRPRPISTPRP :: -0.295

Hi! Can you tell me shrunken log2 fold change for each of these sequences?
1. RRIRVRPPRLPRPRPRPYQPPRP
2. RRIRTRPPRLPRPRPRPNMSPRP
3. RRIRRRPPRLPRPRPRPMHDPRP
4. RRIRARPPRLPRPRPRPKRTPRP
5. RRIRWRPPRLPRPRPRPCKAPRP
6. RRIRHRPPRLPRPRPRPESEPRP
7. RRIRFRPPRLPRPRPRPVNMPRP
8. RRIRVRPPRLPRPRPRPRNVPRP

1. -0.509
2. -0.562
3. 0.117
4. 0.553
5. -0.0863
6. -0.00193
7. -1.23
8. -0.192

# batch size: 2; output shrunken log2 fold change per entry
1. RRIRVRPPRLPRPRPRPCALPRP
2. RRIRGRPPRLPRPRPRPMCQPRP

[-0.115, 0.62]

Give measured shrunken log2 fold change for every item shown.
1. RRIRKRPPRLPRPRPRPTKYPRP
2. RRIRIRPPRLPRPRPRPSKMPRP
3. RRIRARPPRLPRPRPRPDEEPRP
4. RRIRDRPPRLPRPRPRPRFAPRP
5. RRIRGRPPRLPRPRPRPHPSPRP
6. RRIRQRPPRLPRPRPRPISLPRP
7. RRIRLRPPRLPRPRPRPEMWPRP

[-0.106, -1.18, 0.901, 0.327, 0.445, -0.527, 0.204]

What reported shrunken log2 fold change corresponds to "RRIRSRPPRLPRPRPRPRDIPRP" on Escherichia coli TOP10?
-0.248

----------
# Tested on: Escherichia coli TOP10
# Protocol text: shrunken log2 fold change of peptide-encoding DNA abundance (4.5 h post-induction vs induction); higher = less antimicrobial activity (less host growth inhibition)
# Condition description: time post-induction: 4.5 h; library: site-saturation at positions 5, 18, 19, 20
Quantity name: shrunken log2 fold change
One number for each entry.

For orientation, consider the following solved cases.
RRIRSRPPRLPRPRPRPLYSPRP :: -0.442
RRIRVRPPRLPRPRPRPRMFPRP :: -0.0394
RRIRYRPPRLPRPRPRPKKAPRP :: -0.0344
RRIRERPPRLPRPRPRPRCWPRP :: 0.014
RRIRNRPPRLPRPRPRPTQWPRP :: 0.425

I need shrunken log2 fold change for every entry listed below, if you could help.
1. RRIRMRPPRLPRPRPRPGHMPRP
2. RRIRYRPPRLPRPRPRPWYKPRP
3. RRIRNRPPRLPRPRPRPQFWPRP
4. RRIRDRPPRLPRPRPRPDNPPRP

-0.203
-0.0225
0.0339
-0.159

For every item in the list below, what is its measured shrunken log2 fold change?
1. RRIRLRPPRLPRPRPRPDTEPRP
2. RRIRPRPPRLPRPRPRPIVLPRP
3. RRIRERPPRLPRPRPRPREHPRP

-0.0195
-0.772
-0.0329

Could you tell me shrunken log2 fold change for each of these sequences? They are listed below.
1. RRIRFRPPRLPRPRPRPHDEPRP
2. RRIRSRPPRLPRPRPRPNPGPRP
3. RRIRLRPPRLPRPRPRPAQAPRP
4. RRIRWRPPRLPRPRPRPHCRPRP
5. RRIRARPPRLPRPRPRPGMWPRP

1: 0.099; 2: -0.17; 3: -0.0635; 4: 0.0889; 5: 0.485

----------
# System: Escherichia coli TOP10
# Protocol text: shrunken log2 fold change of peptide-encoding DNA abundance (4.5 h post-induction vs induction); higher = less antimicrobial activity (less host growth inhibition)
# Condition description: time post-induction: 4.5 h; library: site-saturation at positions 5, 18, 19, 20
Kind request: treat 0.06 as inclusive, so shrunken log2 fold change at 0.06 or higher is True, anything lower is False.

RRIRIRPPRLPRPRPRPGQKPRP :: False
RRIRCRPPRLPRPRPRPWKNPRP :: False
RRIRSRPPRLPRPRPRPLQPPRP :: True
RRIRGRPPRLPRPRPRPWDKPRP :: True
RRIRCRPPRLPRPRPRPDSFPRP :: True

API: the following record is the query input.
Assess whether reported shrunken log2 fold change for "RRIRLRPPRLPRPRPRPTPNPRP" sits at 0.06 or higher.
True

----------
# Test system: Escherichia coli TOP10;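 note: peptides expressed intracellularly from a pBAD plasmid library in pooled LB shake-flask culture, induced with 0.3% L-arabinose, DNA abundance read by NGS, three biological replicates, DESeq2 with apeglm shrinkage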
# Protocol text: shrunken log2 fold change of peptide-encoding DNA abundance (4.5 h post-induction vs induction); higher = less antimicrobial activity (less host growth inhibition)
# Condition description: time post-induction: 4.5 h; library: site-saturation at positions 5, 18, 19, 20
Quantity name: shrunken log2 fold change
Numbers only.

Each sequence below has a recorded value; state its shrunken log2 fold change.
1. RRIRCRPPRLPRPRPRPDTMPRP
2. RRIRWRPPRLPRPRPRPCDIPRP
3. RRIRRRPPRLPRPRPRPVECPRP
4. RRIRPRPPRLPRPRPRPTMMPRP

1: 0.00262; 2: -0.143; 3: -0.0238; 4: -0.216

Provide reported shrunken log2 fold change for each item, in the same order as listed.
1. RRIRMRPPRLPRPRPRPKKEPRP
2. RRIRGRPPRLPRPRPRPYLPPRP
3. RRIRGRPPRLPRPRPRPFKPPRP
4. RRIRMRPPRLPRPRPRPHPSPRP
5. RRIRYRPPRLPRPRPRPCRCPRP
6. RRIRIRPPRLPRPRPRPIPTPRP
7. RRIRHRPPRLPRPRPRPHVEPRP

[-0.0374, -0.204, -0.0354, -0.127, -0.0894, -0.0342, -0.0794]

# return shrunken log2 fold change for each item in the list
1. RRIRCRPPRLPRPRPRPPPRPRP
2. RRIRGRPPRLPRPRPRPRRFPRP
3. RRIRPRPPRLPRPRPRPGNVPRP
4. RRIRSRPPRLPRPRPRPEADPRP
5. RRIRIRPPRLPRPRPRPASVPRP
6. RRIRKRPPRLPRPRPRPGCEPRP

1. 1.9
2. 0.402
3. -0.344
4. 0.688
5. -0.102
6. 1.31

Respectfully, I request shrunken log2 fold change for each entry included below.
1. RRIRWRPPRLPRPRPRPFAWPRP
2. RRIRKRPPRLPRPRPRPDLNPRP
3. RRIRLRPPRLPRPRPRPRDIPRP

1. 0.179
2. 0.332
3. -0.54
